# Tested on: LXRa:RXRa (NR concentration 270 nM, RXRa partner concentration 90 nM)
# Protocol Description: PBM binding z-score (relative to random genomic background probes); higher = stronger binding; sequences stand for … in GC…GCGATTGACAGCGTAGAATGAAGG
Metric Name: PBM binding z-score

In [3]: df
Out[3]:
                       record_sequence          metric_name  recorded_result
 0  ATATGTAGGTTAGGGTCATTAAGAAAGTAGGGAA  PBM binding z-score             3.41
 1  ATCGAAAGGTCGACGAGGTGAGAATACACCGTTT  PBM binding z-score              3.9
 2  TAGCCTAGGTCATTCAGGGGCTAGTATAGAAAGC  PBM binding z-score             3.69
 3  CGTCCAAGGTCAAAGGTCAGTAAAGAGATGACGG  PBM binding z-score             6.87
 4  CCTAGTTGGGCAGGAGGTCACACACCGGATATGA  PBM binding z-score             2.97
 5  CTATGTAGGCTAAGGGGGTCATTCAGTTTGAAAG  PBM binding z-score             3.81
 6  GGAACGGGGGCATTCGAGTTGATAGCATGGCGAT  PBM binding z-score             4.03
 7  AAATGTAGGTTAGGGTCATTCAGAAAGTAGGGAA  PBM binding z-score              4.2
 8  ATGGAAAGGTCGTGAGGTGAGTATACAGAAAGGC  PBM binding z-score             4.01
 9  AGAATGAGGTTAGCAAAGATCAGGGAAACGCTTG  PBM binding z-score             1.07
10  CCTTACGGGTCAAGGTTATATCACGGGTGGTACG  PBM binding z-score             3.89
11  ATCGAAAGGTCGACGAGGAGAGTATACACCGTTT  PBM binding z-score             3.26
12  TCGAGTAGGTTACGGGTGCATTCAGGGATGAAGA  PBM binding z-score            0.756
13  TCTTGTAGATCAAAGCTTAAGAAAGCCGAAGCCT  PBM binding z-score           0.0464
14  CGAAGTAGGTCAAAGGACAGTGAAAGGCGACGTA  PBM binding z-score             3.33
15  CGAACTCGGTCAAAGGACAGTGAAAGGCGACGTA  PBM binding z-score            0.857
16  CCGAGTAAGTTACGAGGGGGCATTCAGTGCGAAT  PBM binding z-score             3.84
17  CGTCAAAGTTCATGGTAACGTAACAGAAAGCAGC  PBM binding z-score             5.67
18  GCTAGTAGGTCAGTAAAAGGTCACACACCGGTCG  PBM binding z-score             5.45
19  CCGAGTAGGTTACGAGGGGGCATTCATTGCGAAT  PBM binding z-score             6.78
20  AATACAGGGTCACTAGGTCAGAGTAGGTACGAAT  PBM binding z-score             5.67
21  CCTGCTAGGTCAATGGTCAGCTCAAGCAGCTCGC  PBM binding z-score             2.16
22  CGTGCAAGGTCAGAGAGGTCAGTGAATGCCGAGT  PBM binding z-score             5.22
23  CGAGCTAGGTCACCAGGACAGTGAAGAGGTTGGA  PBM binding z-score             2.28
24  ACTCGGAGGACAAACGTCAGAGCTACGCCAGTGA  PBM binding z-score           -0.418
25  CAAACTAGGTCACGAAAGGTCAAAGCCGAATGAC  PBM binding z-score             8.31
